- SUBJECT OF TEST: CXC chemokine receptor type 4 (CXCR4) (human, UniProt P61073 1-352)
- Sequence (P61073 whole entry): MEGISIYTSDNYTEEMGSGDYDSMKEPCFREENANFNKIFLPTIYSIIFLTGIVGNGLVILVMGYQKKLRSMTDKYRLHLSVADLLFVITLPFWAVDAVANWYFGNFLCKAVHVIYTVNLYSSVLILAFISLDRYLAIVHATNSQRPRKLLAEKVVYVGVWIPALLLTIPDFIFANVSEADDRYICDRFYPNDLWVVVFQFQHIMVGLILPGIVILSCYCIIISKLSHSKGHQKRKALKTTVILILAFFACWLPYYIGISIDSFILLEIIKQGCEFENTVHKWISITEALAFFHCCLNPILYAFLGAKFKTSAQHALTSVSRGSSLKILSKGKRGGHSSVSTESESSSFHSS
- ASSAY PROTOCOL: cell-based or functional assay
Where no end group is shown, it is not given here. [ ]: non-standard residue; d: D form. The star is where a group is joined. Palmitoyl = CCCCCCCCCCCCCCCC(=O)*
For each record, write down the corresponding IC50, HIV inhibition assay.

Suppose we examine the binder ILRWSRK(Palmitoyl)L-NH2 (N-terminus assumed; SMILES CCCCCCCCCCCCCCCC(=O)NCCCC[C@H](NC(=O)[C@H](CCCNC(=N)N)NC(=O)[C@H](CO)NC(=O)[C@H](Cc1c[nH]c2ccccc12)NC(=O)[C@H](CCCNC(=N)N)NC(=O)[C@H](CC(C)C)NC(=O)[C@@H](N)[C@@H](C)CC)C(=O)N[C@@H](CC(C)C)C(N)=O) [JM#172] ; what IC50, HIV inhibition assay value has been reported?
0.005 to 0.01 µM

Suppose we examine the binder ILRWSRKVPCVS [JM#8] ; what IC50, HIV inhibition assay value has been reported?
0.05 to 0.15 µM

Suppose we examine the binder IVRWSKKVPC[dV]S [JM#14] ; what IC50, HIV inhibition assay value has been reported?
> 0.15 µM

Suppose we examine the binder IVRWSKKMPCVS [JM#12] ; what IC50, HIV inhibition assay value has been reported?
> 0.15 µM

Suppose we examine the binder ILRWSRKLPCVS (not fully specified (residue 7)) [JM#213] ; what IC50, HIV inhibition assay value has been reported?
0.005 to 0.01 µM
